Overview of reported GI50 across a group of molecules:
- Tested on: SK-OV-3
- Experiment notes: NCI tumour cell line growth inhibition, 48 h
The source made the active and inactive calls. Cut-off read from the data, not from the text of the source: active = GI50 up to about 1.1 µM and inactive = higher.
Outcome measure: GI50

O=C(CC1(O)CCCCC1)OC1CCCC1    > 100 µM (inactive)
Cc1ccccc1Nc1nc2ccccc2nc1NS(=O)(=O)c1ccccc1    > 100 µM (inactive)
O=C1CC(c2ccc[nH]2)=NN1c1ccccc1    > 100 µM (inactive)
CCOC(=O)c1cc2c(OCc3ccccc3)c(OC)cc3c2c(n1)N(c1ccc(OC)cc1)C(C)C3 (stereo unspecified)    > 50 µM (inactive)
O=C(CCCCCC(=O)N1CC(CCl)c2ccc([N+](=O)[O-])cc21)N1CC(CCl)c2ccc([N+](=O)[O-])cc21 (stereo unspecified)    > 100 µM (inactive)
NC(=O)c1nnsc1NN=O    > 100 µM (inactive)
CCN(CC)C(=S)N/N=C(\C)c1ccccc1O    33.7 µM (inactive)
Clc1ccccc1/C=C/c1cscn1    > 100 µM (inactive)
C=C1CCC2C(C)(CO)C(O)CCC2(C)C1C/C=C1\C(=O)OCC1O (stereo unspecified)    24 µM (inactive)
COc1cc(C2c3cc4c(cc3[C@@H](Nc3ccc([N+](=O)[O-])cc3)C3COC(=O)[C@H]23)OCO4)cc(OC)c1O (stereo partly specified)    1.54 µM (inactive)
Cc1nc2nc3c(ncn3COCCO)c(O)n2c1C(c1ccccc1)(c1ccccc1)c1ccccc1    15.9 µM (inactive)

* * *

- System: LXFL 529
- Experiment notes: NCI tumour cell line growth inhibition, 48 h
Activity calls are given as the source filed them. Rule as the data show it: active = GI50 up to about 1.1 µM and inactive = higher.
Overview of reported GI50 across a group of compounds:
Outcome measure: GI50

CC(C)CC(N)C(=O)OCN1C(=O)C2C3C=CC(C2C1=O)C1C2C(=O)N(COC(=O)C(N)CC(C)C)C(=O)C2C31 (stereo not given)    > 100 µM (inactive)
CCCCCCCCCc1cc(=O)c2ccc(OCc3ccccc3)cc2o1    73.8 µM (inactive)
COc1cc2c(c(OC)c1OC)-c1cccc(=O)cc1C(NC(C)=O)CC2 (stereo not given)    0.125 µM (active)
O=C1CCCC2=C(N1)C(=O)C=CC2=O    > 58.7 µM (inactive)
O=C(CC1C(=O)Nc2ccccc2[S+]1[O-])Nc1ccc(Cl)cc1 (stereo not given)    91.8 µM (inactive)
CCN(CC)CCNc1ccc2nc(C)n3c4ccc(OC)cc4c(=O)c1c23    1.41 µM (inactive)
CCCCCCCCCCCCOC(=N)N1CCOCC1    4.06 µM (inactive)
COc1cc(CNc2ccc(C)cc2)cc(OC)c1OC    0.635 µM (active)
O=C(CC(=O)c1ccccc1)C(=O)Nc1ccc(Cl)cc1    > 100 µM (inactive)
Cc1ccc(NC(=O)CC2SC(Nc3cccc(Cl)c3C)=NC2=O)cc1 (stereo not given)    32.4 µM (inactive)

* * *

Overview of reported GI50 across a group of compounds:
- System: T47D
- Experiment notes: NCI tumour cell line growth inhibition, 48 h
Calls of active or inactive are those of the source. Cut-off read from the data, not from the text of the source: active = GI50 up to about 1.1 µM and inactive = higher.
Outcome measure: GI50

Cc1nc2sc3ccccc3n2c(=O)c1/N=N/c1ccc(Cl)cc1    > 100 µM (inactive)
CN(C)C(=C1c2cc([N+](=O)[O-])ccc2-c2ccc([N+](=O)[O-])cc21)N(C)C    4.11 µM (inactive)
O=C1CC(=O)NC(NN2C(=O)CSC2c2ccc(Cl)cc2)=N1 (stereo unspecified)    > 100 µM (inactive)
O=[N+]([O-])c1ccc2[nH]c(=S)[nH]c(=S)c2c1    > 100 µM (inactive)
O=C1NC(Nc2ccccc2)=N/C1=C\c1c(Cl)cccc1Cl    30.8 µM (inactive)
Cc1nc(N)sc1/N=N/c1cc(Cl)c([N+](=O)[O-])cc1Cl    35.9 µM (inactive)
CC1(C)C(=O)N=C(N)N1C(=O)OCc1ccccc1    > 100 µM (inactive)
CC(=O)OCC1OC(n2c(C)cc(C)c(C#N)c2=S)C(OC(C)=O)C(OC(C)=O)C1OC(C)=O (stereo unspecified)    > 100 µM (inactive)
O=c1oc2ccc([N+](=O)[O-])cc2c(Nc2ccc3c(c2)Sc2ccccc2O3)c1[N+](=O)[O-]    40.7 µM (inactive)
O=c1n(CCCN2CCOCC2)nc2n1-c1ccc3ccccc3c1SC2    61.8 µM (inactive)
C=C(Br)C(Cl)(CBr)CCC(Br)C(C)(C)Cl (stereo unspecified)    > 10 µM (inactive)

* * *

- System: BT-549
- Experiment notes: NCI tumour cell line growth inhibition, 48 h
Calls of active or inactive are those of the source. Rule as the data show it: active = GI50 up to about 1.1 µM and inactive = higher.
Outcome measure: GI50

CNC/C(Cl)=N/S(=O)(=O)c1ccc(C)cc1    16.3 µM (inactive)
CCN(CC)CCn1c2cc3c(cc2c(=O)c2cccnc21)OCCO3    > 10 µM (inactive)
O=C(O)C(=Cc1ccc(-c2ccccc2)cc1)C(=O)O    8.79 µM (inactive)
COc1ccc(/[N+]([O-])=C/c2ccccc2OC(=S)S)cc1    23.2 µM (inactive)
CC(C)Oc1cccc(N2C(CCc3c[nH]c4ccc(Br)cc34)=NS(=O)(=O)c3cnccc32)c1    57.4 µM (inactive)
CCOc1ccc2nc(NC(=O)/C(CC(=O)CC(C3=C(O)c4ccccc4CC3=O)c3ccccc3)=N\O)sc2c1 (stereo not given)    > 100 µM (inactive)
O=C1C=Cc2c(Cl)sc(Cl)c21    3.08 µM (inactive)
CCN(CC)CCC(=O)OC1C(C)=CC(C)C(=O)CC(C(C)CC2CCC(O)C(OC)C2)OC(=O)C2CCCCN2C(=O)C(=O)[C@@]2(O)OC(CCC2C)CC(OC)\C(C)=C/C=C/C=C/C(C)CC(C)C(=O)C1OC (stereo not given in full)    < 0.01 µM (active)
COc1ccc(-c2c3ccccc3c(-c3ccc(OCCBr)cc3)c3ccccc23)cc1    > 100 µM (inactive)
Cc1ccc(/C=N/Nc2cc(C)c3ccccc3n2)s1    21.3 µM (inactive)

* * *

- System: Hs-578T
- Experiment notes: NCI tumour cell line growth inhibition, 48 h
Calls of active or inactive are those of the source. Cut-off read from the data, not from the text of the source: active = GI50 up to about 1.1 µM and inactive = higher.
Outcome measure: GI50

C=CCc1ccccc1C1CC2(C(=O)OC)OC1C(C(=O)OC)=C2C(=O)OC (stereo unspecified)    > 10 µM (inactive)
O=C1/C(=C/c2ccccc2O)N=C(c2ccccc2)N1C1Nc2cc3c(cc2S1)NC(N1C(=O)/C(=C/c2ccccc2O)N=C1c1ccccc1)S3 (stereo unspecified)    30.5 µM (inactive)
C/C=C1\CNC1C(=O)O (stereo unspecified)    > 100 µM (inactive)
COc1ccc(N(C(=O)Nc2ccc(Cl)c(Cl)c2)c2ccccc2)cc1    > 10 µM (inactive)
O=C(O)CCc1nc2c(n1-c1ccccc1)C(=O)c1ccccc1C2=O    > 100 µM (inactive)
O=C(CC(=O)Nc1ccccc1)NNC(Sc1ccccc1)c1cc(/N=N/c2ccc(Br)cc2)ccc1O (stereo unspecified)    > 10 µM (inactive)
Cl/C(=N\c1cccc2ccccc12)N(c1ccccc1)c1ccccc1    > 100 µM (inactive)
Cc1cccc(C(O)c2cccnc2)c1O (stereo unspecified)    > 100 µM (inactive)
COc1ccc(/[N+]([O-])=C/c2ccccc2OC(=S)S)cc1    33.7 µM (inactive)
Cc1cc(NS(=O)(=O)c2ccc(/N=N/c3c(O)c(C(=O)O)cc4ccccc34)cc2)nc(C)n1    > 100 µM (inactive)
O=C1c2ccc3ccccc3c2CCC1N1CCCCC1 (stereo unspecified)    20.3 µM (inactive)
COc1cc2c(cc1OC)C(=O)/C(=C/c1ccc([N+](=O)[O-])cc1)CC2    > 10 µM (inactive)
N#Cc1[nH]c(=O)n(-c2ccc([N+](=O)[O-])cc2)c1N    > 10 µM (inactive)
Cc1c2c(OCCCCN3CCN(c4ncccn4)CC3)nn(C)c(=O)c2c(C)n1-c1ccccc1    26.2 µM (inactive)
CC#CC(O)(C(=O)OC1CCCN(C)C1)C1=CC=CCC1 (stereo unspecified)    > 100 µM (inactive)
Cc1oc2c(c1C)S(=O)(=O)C(C#N)=CN2    > 100 µM (inactive)
FC(F)(F)c1cccnc1Sc1nc2ccccc2s1    45.7 µM (inactive)
CC1(C)S[C@@H]2[C@H](NC(=O)/C=C/c3ccccc3)C(=O)N2[C@H]1C(=O)O    > 100 µM (inactive)
COc1c(C)c(C/C=C(\C)CC/C=C(\C)CC/C=C(\C)CC/C=C(\C)CCC=C(C)C)c(OC)c(OC)c1OC    > 100 µM (inactive)
O=C(CCCCCC(=O)N1CC(CCl)c2ccc([N+](=O)[O-])cc21)N1CC(CCl)c2ccc([N+](=O)[O-])cc21 (stereo unspecified)    > 100 µM (inactive)
O=C(Cc1ccccc1)N/N=C/c1ccccc1O    36.1 µM (inactive)
